Reported ratio of currents measured in the presence/absence of added compound, 1.0 μM values for a set of molecules
molecular target: rat α1β2γ2L type GABAA receptors expressed in Xenopus laevis oocytes (Rattus norvegicus, UniProt P18508+P62813+P63138, INS375LLRMFSFK); construct: expressed in transfected cells; host or cells: Xenopus laevis oocytes; test: Oocyte electrophysiology: potentiation of chloride currents mediated by 2 μM GABA, and direct gating; assay type: cell-based; details: 1.0 μM compound; 2 μM GABA; ± SEM (N≥4)
Sequence (P62813 28-455, stated change not applied): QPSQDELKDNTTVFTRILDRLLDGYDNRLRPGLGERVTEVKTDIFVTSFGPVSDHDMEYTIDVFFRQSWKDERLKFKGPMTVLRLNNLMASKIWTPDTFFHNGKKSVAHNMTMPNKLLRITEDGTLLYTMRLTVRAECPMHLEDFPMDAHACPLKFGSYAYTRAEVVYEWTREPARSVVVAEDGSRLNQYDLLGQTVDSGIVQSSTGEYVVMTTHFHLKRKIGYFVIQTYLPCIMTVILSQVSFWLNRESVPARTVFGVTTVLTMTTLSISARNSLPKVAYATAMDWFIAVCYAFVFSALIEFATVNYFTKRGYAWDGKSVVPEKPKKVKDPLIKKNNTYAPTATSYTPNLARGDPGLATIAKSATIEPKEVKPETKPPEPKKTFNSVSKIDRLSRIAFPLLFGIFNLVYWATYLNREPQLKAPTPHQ
Sequence (P63138 26-474, stated change not applied): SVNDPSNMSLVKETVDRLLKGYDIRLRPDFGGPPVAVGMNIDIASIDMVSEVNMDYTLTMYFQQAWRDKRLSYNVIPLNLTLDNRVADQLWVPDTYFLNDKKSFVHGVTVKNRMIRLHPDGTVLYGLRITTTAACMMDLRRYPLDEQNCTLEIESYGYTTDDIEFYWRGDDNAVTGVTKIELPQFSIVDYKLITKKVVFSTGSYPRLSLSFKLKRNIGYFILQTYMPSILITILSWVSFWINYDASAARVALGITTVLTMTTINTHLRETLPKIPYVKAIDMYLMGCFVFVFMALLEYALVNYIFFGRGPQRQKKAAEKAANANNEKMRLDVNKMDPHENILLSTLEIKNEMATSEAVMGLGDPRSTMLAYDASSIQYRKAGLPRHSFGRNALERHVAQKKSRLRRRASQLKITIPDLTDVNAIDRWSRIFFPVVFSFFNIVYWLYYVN
Sequence (P18508 with tags, fused parts or gaps INS375LLRMFSFK): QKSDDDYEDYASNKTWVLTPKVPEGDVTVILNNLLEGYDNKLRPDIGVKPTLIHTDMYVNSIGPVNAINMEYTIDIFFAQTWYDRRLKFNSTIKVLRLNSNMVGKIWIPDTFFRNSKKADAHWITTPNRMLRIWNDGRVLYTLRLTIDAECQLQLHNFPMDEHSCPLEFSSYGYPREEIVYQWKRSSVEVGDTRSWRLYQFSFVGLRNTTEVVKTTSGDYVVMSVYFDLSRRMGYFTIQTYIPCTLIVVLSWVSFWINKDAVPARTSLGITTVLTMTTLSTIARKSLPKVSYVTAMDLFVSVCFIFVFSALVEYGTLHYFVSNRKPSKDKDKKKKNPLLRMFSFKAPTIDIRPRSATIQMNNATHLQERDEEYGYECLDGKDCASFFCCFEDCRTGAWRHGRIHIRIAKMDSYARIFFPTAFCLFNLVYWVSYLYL
MEASURED_PROPERTY: ratio of currents measured in the presence/absence of added compound, 1.0 μM

CO[C@@H]1C[C@@H]2[C@H]3C[C@H](OC)[C@@H]4C[C@@H](O)CC[C@@]4(C)[C@@H]3CC[C@@]2(C)C1 [MQ-125]	5.02 ± 0.40
CO[C@H]1CC[C@]2(C)CC[C@@H]3[C@H](CC[C@@H]4C[C@@H](O)CC[C@]43C)[C@@H]12 [MQ-117]	11.10 ± 1.16
C[C@@]12CC[C@@H]3[C@H](CC[C@@H]4C[C@@H](O)CC[C@]43C)[C@H]1C[C@@H](C#N)C2 [KK-142]	8.83 ± 3.12
CO[C@H]1[C@H]2CC[C@H]3[C@@H](CC[C@@]4(C)C(=O)CC[C@H]34)[C@]2(C)CC[C@@H]1O [KK-117]	3.67 ± 0.33
C[C@@]12CC[C@H]3[C@@H]4CC[C@H](O)C[C@H]4CC[C@@H]3[C@H]1CC(=O)C2 [KK-103]	2.43 ± 0.02
C[C@@]12CC[C@H](O)C[C@H]1CC[C@@H]1[C@H]3CC(=O)C[C@@H]3CC[C@H]12 [KK-114]	1.13 ± 0.02
CO[C@@H]1C[C@@H]2[C@H]3CC[C@@H]4C[C@@H](O)CC[C@@]4(C)[C@@H]3CC[C@@]2(C)C1 [KK-134]	5.22 ± 1.09
C[C@@]12CC[C@@H]3[C@H](CC[C@H]4C[C@@H](O)CC[C@]43C)[C@H]1C[C@@H](C#N)C2 [KK-137]	7.08 ± 0.54

====

Items are presented alongside their recorded ratio of currents measured in the presence/absence of added compound, 10 μM.
target: rat α1β2γ2L type GABAA receptors expressed in Xenopus laevis oocytes (Rattus norvegicus, UniProt P18508+P62813+P63138, INS375LLRMFSFK); construct: expressed in transfected cells; host or cells: Xenopus laevis oocytes; assay: Oocyte electrophysiology: potentiation of chloride currents mediated by 2 μM GABA, and direct gating; format: cell-based; conditions: 10 μM compound; 2 μM GABA; ± SEM (N≥4)
MEASURED_PROPERTY: ratio of currents measured in the presence/absence of added compound, 10 μM

C[C@@]12CC[C@@H]3[C@H](CC[C@H]4C[C@@H](O)CC[C@]43C)[C@H]1CC(=O)C2	30.62
CO[C@@H]1C[C@@H]2[C@H]3CC[C@@H]4C[C@@H](O)CC[C@@]4(C)[C@@H]3CC[C@@]2(C)C1	8.27
C[C@@]12CC[C@@H]3[C@H](CC[C@H]4C[C@@H](O)CC[C@]43C)[C@H]1C[C@@H](C#N)C2	10.17

====

MEASURED_PROPERTY: melting point

CO[C@@H]1C[C@@H]2[C@H]3CC[C@@H]4C[C@@H](O)CC[C@@]4(C)[C@@H]3CC[C@@]2(C)C1 [KK-134]	169 to 171 °C
C[C@@]12CC[C@@H]3[C@H](CC[C@@H]4C[C@@H](O)CC[C@]43C)[C@H]1C[C@@H](C#N)C2 [KK-142]	206 to 208 °C
C[C@@]12CC[C@H](O)C[C@@H]1CC[C@H]1[C@H]2CC[C@@]2(C)C=C(C#N)C[C@H]12 [KK-136]	195 to 197 °C
C[C@@]12CC[C@H]3[C@@H]4CC[C@H](O)C[C@@H]4CC[C@@H]3[C@H]1CC(=O)C2 [KK-102]	139 to 142 °C
O=C1C[C@@H]2CC[C@@H]3[C@H](CC[C@@H]4C[C@@H](O)CC[C@H]43)[C@H]2C1	168 to 169 °C
C[C@@]12CC[C@@H]3[C@H](CC[C@@H]4C[C@@H](O)CC[C@]43C)[C@H]1CC(=CC#N)C2 [KK-138]	162 to 172 °C

====

biological target: rat α1β2γ2L type GABAA receptors expressed in Xenopus laevis oocytes (Rattus norvegicus, UniProt P18508+P62813+P63138, INS375LLRMFSFK); construct: expressed in transfected cells; host or cells: Xenopus laevis oocytes; assay: Oocyte electrophysiology: potentiation of chloride currents mediated by 2 μM GABA, and direct gating; type: cell-based; settings: 10 μM compound; 2 μM GABA; ± SEM (N≥4)
MEASURED_PROPERTY: ratio of currents measured in the presence/absence of added compound, 10 μM

C[C@@]12CC[C@@H]3[C@H](CC[C@@H]4C[C@@H](O)CC[C@]43C)[C@H]1CC(=O)C2	34.70 ± 1.69
CO[C@H]1CC[C@]2(C)CC[C@@H]3[C@H](CC[C@@H]4C[C@@H](O)CC[C@]43C)[C@@H]12	26.20 ± 2.91
C[C@@]12CC[C@@H]3[C@H](CC[C@@H]4C[C@@H](O)CC[C@]43C)[C@H]1C[C@@H](C#N)C2	13.32 ± 4.54
